Reported values of rat MASP2 IC50 for individual entries
target: recombinant rat MASP2 active protease (amino acids 296-685, C-terminal His Tag) (rat, UniProt Q9JJS8 296-685); assay: cell-based or functional assay
Sequence (Q9JJS8 other isoform, or with tags, fused parts or gaps limits assumed): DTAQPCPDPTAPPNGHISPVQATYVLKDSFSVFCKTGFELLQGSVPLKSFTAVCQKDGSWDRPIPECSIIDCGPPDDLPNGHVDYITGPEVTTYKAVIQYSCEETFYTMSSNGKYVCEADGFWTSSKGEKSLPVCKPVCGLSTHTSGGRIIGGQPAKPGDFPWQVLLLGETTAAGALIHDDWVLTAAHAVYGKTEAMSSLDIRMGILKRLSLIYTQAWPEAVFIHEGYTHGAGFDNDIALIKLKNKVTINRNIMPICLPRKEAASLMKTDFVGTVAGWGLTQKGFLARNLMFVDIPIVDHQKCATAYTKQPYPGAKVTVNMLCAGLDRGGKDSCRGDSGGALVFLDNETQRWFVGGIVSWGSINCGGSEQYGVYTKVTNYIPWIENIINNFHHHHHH
Numbered stars: 1 amine (or outer) side, 2 acyl side, 3 side chain; on linkers, the order of the positions; unused ones are H or OH. Bridge positions count the residues as written; N and C are the ends. Square brackets hold non-standard residues; d marks the D form. Ends that are not written are not given here. X9 = (S)‑3‑(1-Pyrrolidine-2-yl)‑propionic acid, O=C(CC[C@@H]1CCCN1[*:1])[*:2]; Oic = O=C(O)[C@@H]1C[C@@H]2CCCC[C@@H]2N1; βPro(3R) = O=C([C@@H]1CCN([*:1])C1)[*:2]; Pen = CC(C)(S)[C@H](N)C(=O)O; Sar = CNCC(=O)O
Answer shape: numeric part, then the unit.

Binder	rat MASP2 IC50
[Sar]ICSRSLP[Oic]I[Pen]IP[βPro(3R)]-OH (disulfide 3-11; N-terminus assumed; SMILES CC[C@H](C)[C@H](NC(=O)CNC)C(=O)N[C@H]1CSSC(C)(C)[C@@H](C(=O)N[C@H](C(=O)N2CCC[C@H]2C(=O)N2CC[C@@H](C(=O)O)C2)[C@@H](C)CC)NC(=O)[C@H]([C@@H](C)CC)NC(=O)[C@@H]2C[C@@H]3CCCC[C@@H]3N2C(=O)[C@@H]2CCCN2C(=O)[C@H](CC(C)C)NC(=O)[C@H](CO)NC(=O)[C@H](CCCNC(=N)N)NC(=O)[C@H](CO)NC1=O) [Example 532: ((N-Me)G)-IC+SRSLP-(Oic)-I-(Pen)+IP-((R)-Pyrrolidine-3-carboxylic acid)-OH]	17.6 nM

Item: [Sar]ICSRSLP[Oic]I[Pen]IP[X9]-OH (disulfide 3-11; N-terminus assumed; SMILES CC[C@H](C)[C@H](NC(=O)CNC)C(=O)N[C@H]1CSSC(C)(C)[C@@H](C(=O)N[C@H](C(=O)N2CCC[C@H]2C(=O)N2CCC[C@H]2CCC(=O)O)[C@@H](C)CC)NC(=O)[C@H]([C@@H](C)CC)NC(=O)[C@@H]2C[C@@H]3CCCC[C@@H]3N2C(=O)[C@@H]2CCCN2C(=O)[C@H](CC(C)C)NC(=O)[C@H](CO)NC(=O)[C@H](CCCNC(=N)N)NC(=O)[C@H](CO)NC1=O) [Example 453: ((N-Me)G)-IC+SRSLP-(Oic)-I-(Pen)+IP-((S)-3-(1-Pyrrolidine-2-yl)-propionic acid)-OH] | rat MASP2 IC50: 32 nM
